- Tested on: HOP-62
- Method description: Tumor cell growth inhibition panel
- Format: cell-based
- Test settings: Homo sapiens, Lung
Measured quantity: IC50
State the value, then name its unit.

What IC50 value was documented for this molecule, CC(C)(C)C1=NN(c2ccc(C(=O)O)cc2)C(c2ccc(Cl)cc2Cl)C1 (stereo not shown) [Compound 12] ?
37.4 µM

###

- Target system: COX1 (Ovis aries (Sheep), UniProt P05979)
- Sequence (P05979 25-600): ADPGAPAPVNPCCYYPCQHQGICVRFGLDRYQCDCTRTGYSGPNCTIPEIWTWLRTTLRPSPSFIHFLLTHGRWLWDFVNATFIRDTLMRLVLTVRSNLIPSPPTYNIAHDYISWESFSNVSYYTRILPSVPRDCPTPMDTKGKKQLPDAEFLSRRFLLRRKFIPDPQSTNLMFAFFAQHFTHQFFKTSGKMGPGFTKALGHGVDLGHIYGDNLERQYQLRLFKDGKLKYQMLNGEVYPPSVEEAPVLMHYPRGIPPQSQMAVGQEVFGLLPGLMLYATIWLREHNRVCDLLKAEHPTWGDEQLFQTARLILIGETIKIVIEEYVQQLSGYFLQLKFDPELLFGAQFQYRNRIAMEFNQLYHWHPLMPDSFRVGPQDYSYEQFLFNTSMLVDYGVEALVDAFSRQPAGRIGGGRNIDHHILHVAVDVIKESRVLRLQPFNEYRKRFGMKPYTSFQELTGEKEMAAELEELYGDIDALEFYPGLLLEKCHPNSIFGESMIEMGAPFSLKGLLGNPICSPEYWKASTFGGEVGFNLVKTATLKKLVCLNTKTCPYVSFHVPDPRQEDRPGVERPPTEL
- Method description: COX-1 activity, colorimetric assay
- Type: biochemical, ovine
- Test settings: screening dose 100 μM; read-out: IC50 μM against COX1
Listing of recorded IC50 by entry.

CC(C)(C)C1=NN(c2ccc(C(=O)O)cc2)C(c2cccc(F)c2)C1 (stereo not drawn) = > 100 µM
Cc1ccc(C2CC(C(C)(C)C)=NN2c2ccc(C(=O)O)cc2)cc1 (stereo not drawn) = > 100 µM
CC(C)(C)C1=NN(c2ccc(C(=O)O)cc2)C(c2ccccc2Br)C1 (stereo not drawn) = > 100 µM
CC(C)(C)C1=NN(c2ccc(C(=O)O)cc2)C(c2cccc([N+](=O)[O-])c2)C1 (stereo not drawn) = > 100 µM
CC(C)(C)C1=NN(c2ccc(C(=O)O)cc2)C(c2ccccc2F)C1 (stereo not drawn) = > 100 µM

What IC50 value was documented for this compound, COc1ccc(C2CC(c3ccccc3)=NN2c2ccc(C(=O)O)cc2)cc1 (stereo not drawn) ?
> 100 µM

###

- Target system: PDE9A (Homo sapiens (Human), UniProt O76083)
- Sequence (O76083 whole entry, species assumed): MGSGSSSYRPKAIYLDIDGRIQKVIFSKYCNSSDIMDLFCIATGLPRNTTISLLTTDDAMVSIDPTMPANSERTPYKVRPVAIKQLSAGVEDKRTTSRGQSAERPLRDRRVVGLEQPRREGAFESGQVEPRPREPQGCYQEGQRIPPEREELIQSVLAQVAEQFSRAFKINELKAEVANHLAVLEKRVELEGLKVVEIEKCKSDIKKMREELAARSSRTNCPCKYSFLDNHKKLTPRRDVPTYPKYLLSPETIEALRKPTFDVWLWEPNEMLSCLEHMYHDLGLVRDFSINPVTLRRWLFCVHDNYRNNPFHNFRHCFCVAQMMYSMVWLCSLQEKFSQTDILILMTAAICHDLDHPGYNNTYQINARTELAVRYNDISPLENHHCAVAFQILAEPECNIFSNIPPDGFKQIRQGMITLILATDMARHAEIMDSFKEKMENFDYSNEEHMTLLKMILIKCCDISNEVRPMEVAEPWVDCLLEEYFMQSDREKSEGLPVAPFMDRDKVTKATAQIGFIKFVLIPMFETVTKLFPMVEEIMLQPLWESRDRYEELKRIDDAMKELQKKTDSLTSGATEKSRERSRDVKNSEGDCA
- Method description: PDE isozyme selectivity, IMAP assay
- Type: biochemical
- Test settings: substrate cGMP
pIC50: −log10 of the molar value.
Measured quantity: pIC50

What pIC50 value was documented for this molecule, CC(C)(C)C1=NN(c2ccc(C(=O)O)cc2)C(c2ccc(Cl)cc2Cl)C1 (stereo not shown) ?
< 4.30

###

- Target system: recombinant human PDE5 (Homo sapiens (Human), UniProt O76074)
- Method description: PDE5 inhibition, IMAP fluorescence polarization assay
- Assay type: biochemical
- Test settings: recombinant human PDE5; IC50 determined if inhibition >50% at 50 μM screening dose; read-out: IC50 μM against PDE5
Categorize each record by its IC50 using low group = under 3 µM, middle group = from 3 µM up to 7 µM, high group = 7 µM and over

Consider the worked cases shown below.
CCOc1ccc(C2CC(C(C)(C)C)=NN2c2ccc(C(=O)O)cc2)cc1 (stereo not drawn) = low group
Cc1ccc(C2CC(C(C)(C)C)=NN2c2ccc(C(=O)O)cc2)cc1 (stereo not drawn) = high group
CC(C)(C)C1=NN(c2ccc(C(=O)O)cc2)C(c2cccc(F)c2)C1 (stereo not drawn) = low group
COc1ccc(C2CC(c3ccccc3)=NN2c2ccc(C(=O)O)cc2)cc1 (stereo not drawn) = low group
CC(C)(C)C1=NN(c2ccc(C(=O)O)cc2)C(c2ccc(O)cc2)C1 (stereo not drawn) = low group

For this molecule, which bin applies? COc1ccc(C2CC(c3ccccc3)=NN2c2ccc(S(N)(=O)=O)cc2)cc1 (stereo not drawn)
middle group

What about this molecule? CC(C)(C)C1=NN(c2ccc(C(=O)O)cc2)C(c2ccc(Cl)cc2Cl)C1 (stereo not drawn)
middle group

What about this molecule? CCOc1ccccc1C1CC(C(C)(C)C)=NN1c1ccc(C(=O)O)cc1 (stereo not drawn)
low group

What about this molecule? CC(C)(C)C1=NN(c2cccc(C(=O)O)c2)C(c2ccc(Cl)cc2)C1 (stereo not drawn)
high group

What about this molecule? COc1ccc(C2CC(c3ccc(F)cc3)=NN2c2ccc(C(=O)O)cc2)cc1 (stereo not drawn)
middle group

What about this molecule? CC(C)(C)C1=NN(c2ccc(C(=O)O)cc2)C(c2cccc(Br)c2)C1 (stereo not drawn)
middle group

What about this molecule? CC(C)(C)C1=NN(c2ccc(C(=O)O)cc2)C(c2ccc(Br)cc2)C1 (stereo not drawn)
high group

What about this molecule? CC(C)(C)C1=NN(c2ccc(C(=O)O)cc2)C(c2ccc([N+](=O)[O-])cc2)C1 (stereo not drawn)
middle group

What about this molecule? CC(C)(C)C1=NN(c2ccc(C(=O)O)cc2)C(c2ccc(Cl)cc2)C1 (stereo not drawn)
high group

What about this molecule? COc1ccc(C2CC(c3cccc(OC)c3)=NN2c2ccc(C(=O)O)cc2)cc1 (stereo not drawn)
low group

What about this molecule? COc1ccc(C2CC(C(C)(C)C)=NN2c2ccc(C(=O)O)cc2)cc1 (stereo not drawn)
low group

###

- Target system: PDE5A (Homo sapiens (Human), UniProt O76074)
Measured quantity: IC50 (µM)
Report only the number, with the unit µM understood.

What IC50 value was documented for this compound, CC(C)(C)C1=NN(c2ccc(C(=O)O)cc2)C(c2ccc(Cl)cc2Cl)C1 (stereo not shown) [Compound 12] ?
3.7

###

- Tested on: A549
- Method description: Tumor cell growth inhibition panel
- Format: cell-based
- Test settings: Homo sapiens, Lung
Measured quantity: IC50
State the value, then name its unit.

What IC50 value was documented for this compound, CC(C)(C)C1=NN(c2ccc(C(=O)O)cc2)C(c2ccc(Cl)cc2Cl)C1 (stereo not shown) ?
58 µM

###

- Target system: UniProtKB Q9Y233
- Sequence (Q9Y233 whole entry): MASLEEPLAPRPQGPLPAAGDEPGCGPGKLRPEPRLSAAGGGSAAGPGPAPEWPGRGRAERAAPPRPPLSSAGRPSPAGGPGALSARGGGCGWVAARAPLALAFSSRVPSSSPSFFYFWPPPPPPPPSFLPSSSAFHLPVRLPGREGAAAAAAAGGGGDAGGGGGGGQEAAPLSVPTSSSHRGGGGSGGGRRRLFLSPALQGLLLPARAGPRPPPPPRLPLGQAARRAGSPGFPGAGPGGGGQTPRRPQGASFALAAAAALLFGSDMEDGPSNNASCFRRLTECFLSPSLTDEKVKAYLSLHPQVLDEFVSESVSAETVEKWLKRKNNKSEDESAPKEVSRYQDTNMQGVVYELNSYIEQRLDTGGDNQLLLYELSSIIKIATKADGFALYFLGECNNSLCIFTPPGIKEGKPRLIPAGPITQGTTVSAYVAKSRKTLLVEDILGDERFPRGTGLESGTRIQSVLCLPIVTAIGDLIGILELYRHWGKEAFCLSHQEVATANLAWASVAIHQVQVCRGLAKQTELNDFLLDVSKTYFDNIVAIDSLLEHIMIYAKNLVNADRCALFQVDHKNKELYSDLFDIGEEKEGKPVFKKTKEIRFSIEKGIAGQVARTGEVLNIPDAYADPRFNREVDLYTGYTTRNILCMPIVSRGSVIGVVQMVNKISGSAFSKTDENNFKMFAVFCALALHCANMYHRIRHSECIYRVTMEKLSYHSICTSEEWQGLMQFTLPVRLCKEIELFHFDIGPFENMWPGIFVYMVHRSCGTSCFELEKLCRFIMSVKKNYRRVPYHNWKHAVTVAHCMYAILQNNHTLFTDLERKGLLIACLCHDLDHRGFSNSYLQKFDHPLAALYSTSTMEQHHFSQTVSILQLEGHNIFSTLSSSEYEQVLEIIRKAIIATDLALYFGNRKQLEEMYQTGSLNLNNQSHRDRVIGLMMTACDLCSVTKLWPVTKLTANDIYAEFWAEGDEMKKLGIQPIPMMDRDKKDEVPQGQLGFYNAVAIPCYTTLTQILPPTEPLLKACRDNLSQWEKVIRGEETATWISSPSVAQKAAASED
- Method description: PDE isozyme selectivity, IMAP assay
- Assay type: biochemical
- Test settings: PDE10, substrate cGMP
pIC50: −log10 of the molar value.
Measured quantity: pIC50

What pIC50 value was documented for this compound, CC(C)(C)C1=NN(c2ccc(C(=O)O)cc2)C(c2ccc(Cl)cc2Cl)C1 (stereo not shown) ?
< 4.30

###

Listing of recorded IC50 by entry.
- Target system: COX2 (Ovis aries (Sheep), UniProt P79208)
- Sequence (P79208 17-603): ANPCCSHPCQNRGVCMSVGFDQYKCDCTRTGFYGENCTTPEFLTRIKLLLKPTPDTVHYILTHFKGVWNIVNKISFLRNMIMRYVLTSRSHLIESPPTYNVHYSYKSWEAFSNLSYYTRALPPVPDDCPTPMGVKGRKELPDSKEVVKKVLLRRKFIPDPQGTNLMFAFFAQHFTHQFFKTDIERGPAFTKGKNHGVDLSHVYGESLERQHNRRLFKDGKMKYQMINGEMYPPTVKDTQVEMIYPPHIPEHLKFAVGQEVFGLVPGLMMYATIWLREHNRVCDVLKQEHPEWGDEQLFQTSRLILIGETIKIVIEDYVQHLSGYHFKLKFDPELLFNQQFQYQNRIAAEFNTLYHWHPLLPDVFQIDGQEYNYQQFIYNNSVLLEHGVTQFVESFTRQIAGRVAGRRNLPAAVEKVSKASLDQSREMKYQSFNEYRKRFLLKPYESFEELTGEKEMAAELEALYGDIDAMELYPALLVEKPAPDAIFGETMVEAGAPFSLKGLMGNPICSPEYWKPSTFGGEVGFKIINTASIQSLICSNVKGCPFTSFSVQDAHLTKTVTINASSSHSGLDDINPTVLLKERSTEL
- Method description: COX-2 activity, colorimetric assay
- Assay type: biochemical, ovine
- Test settings: screening dose 100 μM; read-out: IC50 μM against COX2

COc1ccc(C2CC(c3ccc(F)cc3)=NN2c2ccc(C(=O)O)cc2)cc1 (stereo not drawn) = > 100 µM
CC(C)(C)C1=NN(c2ccc(C(=O)O)cc2)C(c2cccc(Br)c2)C1 (stereo not drawn) = > 100 µM

What IC50 value was documented for this compound, COc1ccc(C2CC(c3ccccc3OC)=NN2c2ccc(C(=O)O)cc2)cc1 (stereo not drawn) ?
> 100 µM

Source of measurements: patent US9388139B2
